B1: tRNA (parent)
chain: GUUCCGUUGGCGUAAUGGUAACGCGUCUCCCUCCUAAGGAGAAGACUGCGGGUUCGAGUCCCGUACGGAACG

# Variants of: B1
# assay: yeast fitness relative to wild type (ratio to wild type); higher = fitter; tRNA-Arg(CCU), competitive growth, 37 C, YPD
Variants at the floor of the assay were thinned out.
# yeast fitness per record follows

| mutant.name | yeast fitness |
| --- | --- |
| U26C G68C | 0.936 |
| U2C C46U | 0.959 |
| C4U C29U C31A C55U A57C | ≤ 0.5 |
| A37U G44A A65U | ≤ 0.5 |
| A15G C30G C31A C66U | ≤ 0.5 |
| U3C C5G A20G G63C C66G | ≤ 0.5 |
| G9A C11A G44C | ≤ 0.5 |
| C24G A36G C55G | ≤ 0.5 |
| C29A A37G G67C | 0.62 |
| G41C A42G A70G | 0.593 |
| U19C C22G C34G A70U | ≤ 0.5 |
| U3C U13G | 1.04 |
| U19G A20U C27G A36G | ≤ 0.5 |
